Cited source for all entries: ChEMBL document CHEMBL1201862

System: SK-OV-3
Assay Name: NCI tumour cell line growth inhibition, 48 h
Active and inactive are the calls of the source. No stated cut-off is given here; in the data, active = GI50 up to about 1.1 µM and inactive = higher.
Write down the outcome that applies. Available outcomes: TRUE for active, FALSE for inactive

Problem: Please indicate how the test categorized CC1(C)Cc2c(sc3[nH]c(=S)[nH]c(=S)c23)CS1 .
Solution: FALSE

Problem: And for COc1ccc(C2=NN(C(=O)COc3ccc(Cl)cc3)C(O)(c3ccc(Cl)cc3)C2)cc1 (stereo not drawn) ?
Solution: FALSE

---
Problem: Please indicate how the test categorized CCO/C=N/C1=C(C#N)SC2=N/C(=C\c3ccccc3)C(=O)N21 .
Solution: FALSE

Problem: And for COc1ccc(Nc2nn3c(=O)c4c(C)c(C)sc4nc3s2)cc1 ?
Solution: FALSE

Problem: And for NS(=O)(=O)c1cc2c(cc1Cl)NC(/C(=N/NC(=O)c1ccncc1)C1C(=O)NC(=O)NC1=O)=NS2(=O)=O ?
Solution: FALSE
